- tested.system: Human SSAO (Homo sapiens)
- Construct: rat lung or human umbilical cord homogenates were prepared by chopping the freshly removed tissue; from tissue; host or cells: human umbilical cord homogenate (25,000 g supernatant)
- Sequence (Q16853 1-763): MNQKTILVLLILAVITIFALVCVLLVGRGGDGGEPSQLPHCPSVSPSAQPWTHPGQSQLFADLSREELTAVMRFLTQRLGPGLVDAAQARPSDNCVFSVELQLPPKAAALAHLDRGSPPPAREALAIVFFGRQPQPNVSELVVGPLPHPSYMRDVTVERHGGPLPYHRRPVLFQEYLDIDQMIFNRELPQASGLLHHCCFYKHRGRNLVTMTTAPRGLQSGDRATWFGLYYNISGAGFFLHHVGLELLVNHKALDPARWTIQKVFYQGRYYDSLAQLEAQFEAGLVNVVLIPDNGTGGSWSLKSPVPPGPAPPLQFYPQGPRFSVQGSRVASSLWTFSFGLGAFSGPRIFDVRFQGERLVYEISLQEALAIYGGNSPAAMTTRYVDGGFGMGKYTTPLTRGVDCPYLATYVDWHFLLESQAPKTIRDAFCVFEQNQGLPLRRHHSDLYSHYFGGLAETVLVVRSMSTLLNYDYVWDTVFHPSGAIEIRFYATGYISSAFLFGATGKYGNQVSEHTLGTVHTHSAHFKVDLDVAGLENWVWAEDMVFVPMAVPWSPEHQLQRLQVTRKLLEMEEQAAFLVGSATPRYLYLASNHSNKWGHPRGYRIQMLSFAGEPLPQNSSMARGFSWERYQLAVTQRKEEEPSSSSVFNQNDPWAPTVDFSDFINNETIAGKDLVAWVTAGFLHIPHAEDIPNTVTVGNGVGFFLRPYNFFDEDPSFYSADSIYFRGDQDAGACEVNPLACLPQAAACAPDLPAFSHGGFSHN
- assay: In vitro inhibition of SSAO activity, human umbilical cord homogenate, 14C-benzylamine
- Type: biochemical
- test.conditions: human umbilical cord homogenate; read-out: Human SSAO IC50
- Description: SSAO activity was measured as described (Lizcano J M. Et al. (1998) Biochem J. 331:69). Briefly, rat lung or human umbilical cord homogenates were prepared by chopping the freshly removed tissue into small pieces and washing them thoroughly in PBS. […] Homogenates were then centrifuged at 1000 g at 4° C. for 10 min (lung) or 25,000 g for 30 min (umbilical cord); the supernatants were kept frozen until ready to use. […]
Counter-ions that a name gives are not always drawn.
Threshold-based label: IC50 under 100 nM gives MET, IC50 not under 100 nM gives NOT MET.

query: Identify whether the compound CCCCOc1ccc(CC/C(=C\Cl)CN)cc1.Cl [Compound I-47-E, hydrochloride] records IC50 below 100 nM.
result: NOT MET

query: Identify whether the compound CS(=O)(=O)c1cccc(C/C=C(/F)CN)c1.Cl [II-14-E, hydrochloride] records IC50 below 100 nM.
result: MET

query: Identify whether the compound CCOc1ccc(CC/C(=C\Cl)CN)cc1.Cl [Compound I-45-Z, hydrochloride] records IC50 below 100 nM.
result: NOT MET

query: Identify whether the compound CN(C)c1cccc(C/C=C(/F)CN)c1.Cl [II-11-E, hydrochloride] records IC50 below 100 nM.
result: NOT MET

query: Identify whether the compound COc1cccc(C/C(C)=C(/F)CN)c1 [II-18-E, hydrochloride] records IC50 below 100 nM.
result: NOT MET

query: Identify whether the compound Cc1cccc(CC/C(=C\Cl)CN)c1.Cl [Compound I-48-E, hydrochloride] records IC50 below 100 nM.
result: NOT MET

query: Identify whether the compound CC(C)Oc1ccc(C/C(=C/F)CN)cc1.Cl [Compound I-8-Z, hydrochloride] records IC50 below 100 nM.
result: MET

query: Identify whether the compound Cc1ccc(CC/C(=C/Cl)CN)cc1.Cl [Compound I-39-Z, hydrochloride] records IC50 below 100 nM.
result: NOT MET

query: Identify whether the compound CC(C)c1ccc(C/C(=C\F)CN)cc1.Cl [Compound I-14-E, hydrochloride] records IC50 below 100 nM.
result: MET
